Measured Population Mitotic Cells (%) of individual entries
test system: U2OS; assay: Multiplex assay against U2OS; type: toxicity, cell-based; conditions: human, 48 h, 1 µM, compound concentration 1 uM, replicate 1
API: value field is a number in %; no unit string.

Here is how some compounds turned out for Population Mitotic Cells (%).
For COCCCN1CCC(NC(=O)c2cc(Cl)c(N)c3c2OCC3)CC1 [PRUCALOPRIDE] the compound record lists Population Mitotic Cells (%) as 14

Entry CC(C)(O)C(=O)N1CCN(c2ccc(C(F)(F)F)c(C3=C(c4c[nH]c5ccccc45)C(=O)NC3=O)c2)CC1 — recorded Population Mitotic Cells (%) = 4

Population Mitotic Cells (%) for Cc1c(Cc2ccc3ccccc3n2)c2cc(F)ccc2n1CC(=O)O is 11

compound Cc1sc2c(c1C)C(c1ccc(Cl)cc1)=N[C@H](CC(=O)OC(C)(C)C)c1nnc(C)n1-2 , Population Mitotic Cells (%) observed: 22

For Cc1cc(-c2ccc3c(c2)CC[C@H]3N2CC3(CCN(C(=O)Cc4cn5cc(C)sc5n4)CC3)C2)ncn1 the compound record lists Population Mitotic Cells (%) as 15

Form field Population Mitotic Cells (%), entry C[C@@H]1CC(=O)Nc2cccc(-c3ccc4c(c3)c(-c3cnn(C)c3)nn4C)c2N1 : 0

***
compound COc1cc(OC2CCN(C(C)=O)CC2)ccc1C(=O)N1CCC(N2C(=O)OCc3ccccc32)CC1 , Population Mitotic Cells (%) observed: 19

Form: compound = N[C@](CC1c2ccccc2Oc2ccccc21)(C(=O)O)[C@H]1C[C@@H]1C(=O)O ; Population Mitotic Cells (%) = 10

Entry CN1CCC(C(=O)c2cccc(NC(=O)c3c(F)cc(F)cc3F)n2)CC1 — recorded Population Mitotic Cells (%) = 0

The recorded Population Mitotic Cells (%) for entry COc1cc(Nc2ncc3c(n2)-c2ccc(Cl)cc2C(c2c(F)cccc2OC)=NC3)ccc1C(=O)O equals 14

Population Mitotic Cells (%) in this record for CCCCCCNC(=O)Nc1ccc(S(=O)(=O)Nc2ccc(CCNC[C@H](O)COc3ccc(O)cc3)cc2)cc1 : 21

Input Cc1nn(C)c2nc(NNC(=O)Nc3cc(Cl)nc(Cl)c3)cc(C(C)C)c12 . Output Population Mitotic Cells (%): 11

Kindly note the recorded Population Mitotic Cells (%) for COc1cc(C(=O)N2CC[C@@H](O)[C@@H](N)C2)cc2nc(-c3cc4ccccc4n3CC3CC3)n(C)c12.Cl , which is 17

The reported Population Mitotic Cells (%) of the compound OCCCNc1cc(-c2ccnc(Nc3cccc(Cl)c3)n2)ccn1 was 4

// Population Mitotic Cells (%) lookup, compound = COc1cc2nc(N3CCN(C(=O)c4ccco4)CC3)nc(N)c2cc1OC.Cl [PRAZOSIN HYDROCHLORIDE] , result: 5

Population Mitotic Cells (%) reading for Cc1cc(NC(=O)NCCN2CCC(O)(Cc3ccccc3)CC2)c2ccccc2n1 : 3

In plain terms, Cl.Cl.OCCOCCN1CCN(C(c2ccccc2)c2ccc(Cl)cc2)CC1 (stereo not drawn) [HYDROXYZINE HYDROCHLORIDE] has a documented Population Mitotic Cells (%) of 10

// Population Mitotic Cells (%) lookup, compound = CCn1c(-c2nc3cc(C(=O)N4CCCC(N)C4)ccc3n2C)cc2ccccc21.Cl (stereo not drawn) , result: 25

---

compounds and their reported Population Hoechst High Intensity Objects (%)
system: U2OS; assay: Multiplex assay against U2OS; assay type: toxicity, cell-based; details: human, 48 h, 1 µM, compound concentration 1 uM, replicate 2
// note: answer is a bare numeric in %

Looking up O=c1nc2[nH]c3ccccc3nc-2c(=O)[nH]1 , I see its Population Hoechst High Intensity Objects (%) listed as 6

For record Cc1sc2c(c1C)C(c1ccc(Cl)cc1)=N[C@H](CC(=O)OC(C)(C)C)c1nnc(C)n1-2 the listed Population Hoechst High Intensity Objects (%) is 3

Population Hoechst High Intensity Objects (%) in this record for C=CCN1C[C@H](C(=O)N(CCCN(C)C)C(=O)NCC)C[C@@H]2c3cccc4[nH]cc(c34)C[C@H]21 : 3

Lookup result for Cn1cc(C(=O)OCC2CCN(CCNS(C)(=O)=O)CC2)c2ccccc21 ; measured Population Hoechst High Intensity Objects (%): 2

Per the records, this compound ( COc1ccc2c(c1OCc1ccccc1)C[C@@H](C(=O)O)N(C(=O)C(c1ccccc1)c1ccccc1)C2 ) has Population Hoechst High Intensity Objects (%) equal to 4

Value of Population Hoechst High Intensity Objects (%) reported for the compound O=c1ccc2ccc(OCCCCN3CCN(c4cccc5sccc45)CC3)cc2[nH]1 is 2

Looking up Cc1cc(NC(=O)NCCN2CCC(O)(Cc3ccccc3)CC2)c2ccccc2n1 , I found its Population Hoechst High Intensity Objects (%) recorded as 3

Recorded result, CN1C[C@H](C(=O)N[C@]2(C)O[C@@]3(O)[C@@H]4CCCN4C(=O)[C@H](Cc4ccccc4)N3C2=O)C[C@@H]2c3cccc4[nH]cc(c34)C[C@H]21.CS(=O)(=O)O [DIHYDROERGOTAMINE MESYLATE] , Population Hoechst High Intensity Objects (%): 1

Please turn your attention to the following entry.
According to the records, this compound O=C(O)CCC/C=C\CC1C(O)CC(O)C1/C=C/C(O)COc1cccc(Cl)c1 (centres undefined) displays Population Hoechst High Intensity Objects (%) of 0

---

test system: HEK-293T; experiment: Multiplex assay against HEK293T; type: toxicity, cell-based; conditions: human, 24 h, 1 µM, compound concentration 1 uM, replicate 2
measured.attribute: Population Pyknosed Nuclei (%)
Response body: numeric value in %, unit text excluded.

Known results for compounds:
Form: compound = CC(C)(C)c1ccc(CSc2cnn(C(C)(C)C)c(=O)c2Cl)cc1 [PYRIDABEN] ; Population Pyknosed Nuclei (%) = 8

In plain terms, COc1cc(OC2CCN(C(C)=O)CC2)ccc1C(=O)N1CCC(N2C(=O)OCc3ccccc32)CC1 has a documented Population Pyknosed Nuclei (%) of 12

Entry CCn1c(-c2nc3cc(C(=O)N4CCCC(N)C4)ccc3n2C)cc2ccccc21.Cl (centres undefined) — recorded Population Pyknosed Nuclei (%) = 11

Consider CSc1nc(NC2CCCC2)c([N+](=O)[O-])c(NC2CCCC2)n1 [GS-39783] . Its measured Population Pyknosed Nuclei (%) is 7

Looking up Cc1cc(O)c(-c2ccc([C@@H](C)CN(C)C)cc2)c2c1[nH]c(=O)c1sccc12 , I found its Population Pyknosed Nuclei (%) recorded as 19

Further cases:
GET /value?item= CN(C)C/C=C/C(=O)Nc1ccc(C(=O)N2CCCC(Nc3ncc(Cl)c(-c4c[nH]c5ccccc45)n3)C2)cc1 (centres undefined) &field=Population Pyknosed Nuclei (%) returns 23

Population Pyknosed Nuclei (%) reported for this compound Cc1ccc(OCC(O)C(C)NC(C)C)c2c1CCC2.Cl (centres undefined) : 9

Note to self: Population Pyknosed Nuclei (%) recorded for Cc1cc(-c2ccc3c(c2)CC[C@H]3N2CC3(CCN(C(=O)Cc4cn5cc(C)sc5n4)CC3)C2)ncn1 [PF-5190457] was 9

Per the records, this compound ( C[C@H](NC(=O)CNC(=O)c1cccc(Cl)c1)c1ccccc1 ) has Population Pyknosed Nuclei (%) equal to 7

---

This listing pairs compounds with measured Population Hoechst High Intensity Objects (%).
system: Fibroblast; test: Multiplex assay against human fibroblast; format: toxicity, cell-based; conditions: 12 h, 1 µM, compound concentration 1 uM, replicate 1
Give a bare numeral; the unit % is implied.

In the examples that follow, each entry is paired with its recorded Population Hoechst High Intensity Objects (%).
Looking up CC(C)(O)C(=O)N1CCN(c2ccc(C(F)(F)F)c(C3=C(c4c[nH]c5ccccc45)C(=O)NC3=O)c2)CC1 , I found its Population Hoechst High Intensity Objects (%) recorded as 2

# Population Hoechst High Intensity Objects (%) of Cc1ccc(OCC(O)C(C)NC(C)C)c2c1CCC2.Cl (stereo not given) = 0

Memo: CN1CCN(c2ccc(Nc3c4ccccc4nc4ccccc34)cc2)CC1.Cl.Cl.O , reported Population Hoechst High Intensity Objects (%): 1

Looking up COc1cc2nc(N3CCN(C(=O)c4ccco4)CC3)nc(N)c2cc1OC.Cl [PRAZOSIN HYDROCHLORIDE] , I see its Population Hoechst High Intensity Objects (%) listed as 1

Query compound follows.
Looking up Cc1sc2c(c1C)C(c1ccc(Cl)cc1)=N[C@H](CC(=O)OC(C)(C)C)c1nnc(C)n1-2 , I see its Population Hoechst High Intensity Objects (%) listed as 2

---

system: HEK-293T; test: Multiplex assay against HEK293T; assay type: toxicity, cell-based; conditions: human, 24 h, 1 µM, compound concentration 1 uM, replicate 1
Below is a list of entries, each paired with its recorded Population Healthy Nuclei (%) value.
Output spec: scalar in %, unitless text.

Consider the reported Population Healthy Nuclei (%) for these molecules:
Recorded result, N[C@](CC1c2ccccc2Oc2ccccc21)(C(=O)O)[C@H]1C[C@@H]1C(=O)O , Population Healthy Nuclei (%): 81

Documented Population Healthy Nuclei (%) of OCCCNc1cc(-c2ccnc(Nc3cccc(Cl)c3)n2)ccn1 : 66

response.value for COc1cc(C(=O)N2CC[C@@H](O)[C@@H](N)C2)cc2nc(-c3cc4ccccc4n3CC3CC3)n(C)c12.Cl (field: Population Healthy Nuclei (%)) = 77

The molecule COc1ccc2c(c1OCc1ccccc1)C[C@@H](C(=O)O)N(C(=O)C(c1ccccc1)c1ccccc1)C2 showed Population Healthy Nuclei (%) equal to 78

Continuing:
Record summary for CCc1nn2c(C)cc(C)nc2c1Cc1ccc(-c2nnc(C3CCNCC3)o2)cc1 : reported Population Healthy Nuclei (%) = 76

According to the records, this molecule CN1C[C@H](C(=O)N[C@]2(C)O[C@@]3(O)[C@@H]4CCCN4C(=O)[C@H](Cc4ccccc4)N3C2=O)C[C@@H]2c3cccc4[nH]cc(c34)C[C@H]21.CS(=O)(=O)O [DIHYDROERGOTAMINE MESYLATE] displays Population Healthy Nuclei (%) of 80

Reported Population Healthy Nuclei (%) of O=C(NCCNCC(O)COc1ccc(O)cc1)N1CCOCC1.O=C(NCCNCC(O)COc1ccc(O)cc1)N1CCOCC1.O=C(O)/C=C/C(=O)O (stereo unspecified) [XAMOTEROL FUMARATE] : 78

Kindly note the recorded Population Healthy Nuclei (%) for Cc1nn(C)c2nc(NNC(=O)Nc3cc(Cl)nc(Cl)c3)cc(C(C)C)c12 , which is 78

Entry S=C(NCCCc1c[nH]cn1)NCCCN(Cc1ccc(Cl)c(Cl)c1)c1ccc(Br)cn1 , Population Healthy Nuclei (%) reported as 73
